# Tested on: Plasmodium berghei
# assay: Screen against P. berghei liver stage (PbLuc), transformed with Luciferase, at 10uM
# Assay type: functional, HepG2
# experimental.context: tested at 10 uM
About 8,600 (12%) of roughly 69,000 compounds showed an effect of 50% or more. What follows is part of a selection rich in strong results, with near analogues and random picks from the rest.
hey, just use true if measured INHIBITION is less than 50%, otherwise false

compound: CCOCc1cnc2n1CCN(C(=O)c1cn(C)c3ccccc13)C2C (stereo unspecified)
assigned.label: false

compound: COCc1cnc2n1CCN(C(=O)c1cn(C)c3ccccc13)C2C (stereo unspecified)
assigned.label: true

compound: CCOCc1cnc2n1CCN(C(=O)c1cccc3c1OCCO3)C2C (stereo unspecified)
assigned.label: false

compound: OCC1(Cc2cccc(Cl)c2)CCCN(c2ncccn2)C1 (stereo unspecified)
assigned.label: true

compound: CCOCc1cnc2n1CCN(C(=O)c1ccoc1C)C2C (stereo unspecified)
assigned.label: true
